# assay-text: chemical genetic growth profiling, strain panel (AID 1159580);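 note: tested at 20 µM; growth read once vehicle control cultures reached saturation at 30 °C; 1 = growth at the plate median or of vehicle wells; lower values mean less growth of the strain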
# study-conditions: S. cerevisiae deletion strains, growth OD, locus YLL026W
About 2,000 (36%) of roughly 5,500 compounds were called active. Not shown: some 18% with an inconclusive outcome. Cut-off read from the data, not from the text of the source: active = normalized growth mostly below about 0.91 (no sharp cut-off); inconclusive = no clear call, values can overlap the other calls; inactive = mostly above about 0.92. The list shows a part of the results.
Give your call using only these classes: y = active, n = inactive

Some solved entries appear below for comparison.
compound: CC(C)=CCc1c2c(c3occ(-c4ccc(O)c(O)c4)c(=O)c3c1O)C=CC(C)(C)O2
class-name: n

compound: CC(C)C[C@@H](CN)CC(=O)O
class-name: n

compound: OC[C@H]1O[C@@H](O[C@H]2[C@H](O)[C@@H](O)[C@@H](O)O[C@@H]2CO)[C@H](O)[C@@H](O)[C@@H]1O
class-name: n

compound: O=P1(N(CCCl)CCCl)NCCCO1 (stereo not given)
class-name: n

compound: CC(C)=CCc1c2c(c3occ(-c4ccc(O)cc4)c(=O)c3c1O)C=CC(C)(C)O2
class-name: y

Give the logged outcome of this assay for the following compound: CC1(C)CC2C1CC[C@]1(C)CCC3C(C(=O)O)CC(=O)O[C@@]32C1 (stereo not given in full) n

So what was the verdict on `OC[C@H]1O[C@@H](O[C@@H]2[C@@H](CO)O[C@](O)(CO)[C@H]2O)[C@H](O)[C@@H](O)[C@H]1O` in this test? n

For this compound, state the assay outcome: CC1(C)CC2C1CC[C@]1(CBr)CCC3C(CC(=O)O)C(=O)O[C@@]32C1 (stereo not given in full) n

Fill in: this test's call for `CC(C)(C)NC[C@H](O)c1ccc(O)c(CO)c1` is ___ n

Each compound tested received a call. Report the one for CC(CCc1ccccc1)NCC(O)c1ccc(O)c(C(N)=O)c1 (stereo not given) . n

###

Consider the following compounds and their measured normalized growth readings.
# assay-text: chemical genetic growth profiling, strain panel (AID 1159580);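 note: tested at 20 µM; growth read once vehicle control cultures reached saturation at 30 °C; 1 = growth at the plate median or of vehicle wells; lower values mean less growth of the strain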
# study-conditions: S. cerevisiae deletion strains, growth OD, locus YPL078C, strain atp4, active compounds read low
Out of some 5,500 compounds screened, about 2,000 (36%) were called active. Not shown: some 18% with an inconclusive outcome. The list shows a part of the results.
Give the figure only, with no unit attached.

Answered examples (5):
compound: CC(=O)O[C@@H]1C=C[C@@]2(C)C(C[C@@H](OC(C)=O)[C@@]3(C)C4=CC(=O)O[C@@H](c5ccoc5)[C@]4(C)CCC23)C1(C)C (some centres not stated)
normalized growth: 0.982
//
compound: CC(=O)c1ccc(O)c(CC=C(C)C)c1
normalized growth: 0.959
//
compound: COc1ccc2cc(CCC(C)=O)ccc2c1
normalized growth: 0.981
//
compound: CC(C)=CC1C(C(=O)O)C1(C)C (configuration not stated)
normalized growth: 1
//
compound: CC(=O)Oc1cccc(O)c1
normalized growth: 1.03

Give normalized growth for CC(=O)O[C@H]1CC[C@@]2(C)C(C[C@@H](OC(C)=O)[C@@]3(C)C4=CC(=O)O[C@@H](c5ccoc5)[C@]4(C)CCC23)C1(C)C (some centres not stated) 1.01

Give the value of normalized growth reported for the following: `CC(C)(C)NC[C@H](O)c1ccc(O)c(CO)c1` 1.02

In one line, give reported normalized growth of the entry `NS(=O)(=O)c1cc2c(cc1Cl)NC(CSCc1ccccc1)=NS2(=O)=O` . 1.06

Could you please provide reported normalized growth for `CN(C)C(=O)Oc1cccc([N+](C)(C)C)c1` ? Thanks! 0.994

Assign normalized growth to the following record: `Nc1ccc(C(=O)O)cc1` 1.05

Consider the compound CC(=O)O[C@@H]1CC2C(C)(C)[C@H](O)C=C[C@]2(C)C2CC[C@]3(C)C(=CC(=O)O[C@H]3c3ccoc3)[C@@]21C (some centres not stated) and give its recorded normalized growth. 0.989

Name the recorded normalized growth of the item `CCCc1cc(=O)[nH]c(=S)[nH]1` in your answer. 1.02

Note normalized growth for the compound shown: `O=C1NC(O)=NC1(c1ccccc1)c1ccccc1` 1.01

Please list normalized growth recorded for the compound `CCOC(=O)[C@H](CCc1ccccc1)N[C@@H](C)C(=O)N1CCC[C@H]1C(=O)O` 0.993

Please report the measured normalized growth for `CC(=O)c1cc(CC=C(C)C)c(O)c(CC=C(C)C)c1` 1.01

Return normalized growth for the following compound: `CC(=O)Oc1ccc(C(c2ccc(OC(C)=O)cc2)c2ccccn2)cc1` 1.01

Please supply the value of reported normalized growth for the item `Cc1cc(=O)[nH]c(=S)[nH]1` 0.973

Name the recorded normalized growth of the item `Cc1scc2c1N(C(=O)CN1CCN(C)CC1)c1ccccc1NC2=O` in your answer. 0.957

Kindly indicate its recorded normalized growth. Item: NC(Cn1ccc(=O)c(O)c1)C(=O)O (configuration not stated) 1.05

Complete the entry with normalized growth for CC(=O)O[C@@H]1CC2C(C)(C)C(=O)C=C[C@]2(C)C2CC[C@]3(C)C(=CC(=O)O[C@H]3c3ccoc3)[C@@]21C (some centres not stated) 1

Give normalized growth for the following compound: `CCOC(=O)NNc1nncc2ccccc12` 1.07

Output measured normalized growth for this item: CC12CCC(=O)C=C1CCC1C2[C@@H](O)CC2(C)C1CC[C@]2(O)C(=O)COP(=O)(O)O (some centres not stated) 0.995

###

# assay-text: chemical genetic growth profiling, strain panel (AID 1159580);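 note: tested at 20 µM; growth read once vehicle control cultures reached saturation at 30 °C; 1 = growth at the plate median or of vehicle wells; lower values mean less growth of the strain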
# study-conditions: S. cerevisiae deletion strains, growth OD, locus YNL271C, strain bni1, active compounds read low
The whole screen tested about 5,500 compounds, of which about 2,000 (36%) were called active. About 18% were inconclusive and are not listed. This is one part of the list.
endpoint-label: normalized growth
Hey, just send me the number, nothing else.

compound: CC1(C)CC2C1CC[C@]1(CBr)CCC3C(CC(=O)O)C(=O)O[C@@]32C1 (stereo partly drawn)
value-reported: 0.987
--
compound: Nc1ccc(C(=O)O)cc1
value-reported: 1.03
--
compound: CC(C)(C)NCC(O)c1ccc(O)c(CO)c1 (stereo not drawn)
value-reported: 1.02

Identify measured normalized growth corresponding to COc1ccccc1OCC(O)CO (stereo not drawn) 1.01

Give a short answer stating reported normalized growth for CC(Cc1cccc(C(F)(F)F)c1)NCCOC(=O)c1ccccc1 (stereo not drawn) . 1.01

Name the recorded normalized growth of the item `CCCN(CCC)S(=O)(=O)c1ccc(C(=O)O)cc1` in your answer. 1.01

Report normalized growth for `OC[C@H]1O[C@@](CO)(O[C@@H]2O[C@H](CO)[C@@H](O)[C@H](O)[C@H]2O)[C@@H](O[C@@H]2O[C@H](CO)[C@@H](O)[C@H](O)[C@H]2O)[C@@H]1O` 1.02

###

# assay-text: chemical genetic growth profiling, strain panel (AID 1159580);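 note: tested at 20 µM; growth read once vehicle control cultures reached saturation at 30 °C; 1 = growth at the plate median or of vehicle wells; lower values mean less growth of the strain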
# study-conditions: S. cerevisiae deletion strains, growth OD, locus YOR184W, strain ser1, active compounds read low
Screen size: about 5,500 compounds; about 2,000 (36%) were called active. Another 18% or so got no clear call; they are omitted. Some of the results follow.
Below, each entry is listed alongside its reported normalized growth.
Just the number.

Below, 5 molecules whose answers are already recorded.
molecule: OC[C@H]1O[C@@H](O[C@@H]2[C@@H](CO)O[C@](O)(CO)[C@H]2O)[C@H](O)[C@@H](O)[C@H]1O
endpoint-label: normalized growth
value-reported: 0.971
--
molecule: CC(C)c1ccc2c(c1)CCC1C(C)(C(N)=O)CCCC21C (stereo unspecified)
endpoint-label: normalized growth
value-reported: 0.703
--
molecule: C[C@H](CCC(=O)O)[C@H]1CCC2C3C(=O)CC4CC(=O)CC[C@]4(C)C3CC(=O)[C@@]21C (stereo partly specified)
endpoint-label: normalized growth
value-reported: 0.999
--
molecule: OC[C@H]1O[C@@H](O[C@H]2[C@H](O)[C@@H](O)[C@@H](O)O[C@@H]2CO)[C@H](O)[C@@H](O)[C@@H]1O
endpoint-label: normalized growth
value-reported: 1.02
--
molecule: N=C(N)N
endpoint-label: normalized growth
value-reported: 0.974

Output measured normalized growth for this item: CC(C)CCCC(C)[C@H]1CCC2C3CC[C@@H]4C[C@H](O)CC[C@]4(C)C3CC[C@@]21C (stereo partly specified) 0.989

Give the value of normalized growth reported for the following: CC(C)CCCC(C)C1CCC2C3CC(=O)[C@H]4C[C@@H](O)CC[C@]4(C)C3CC[C@]12C (stereo partly specified) 1.04

Indicate its recorded normalized growth; the molecule in question is `CS(=O)(=O)Nc1ccc([N+](=O)[O-])cc1Oc1ccccc1` 0.951

Identify the reported normalized growth for the following entry. `Cc1cc(=O)[nH]c(=S)[nH]1` 1.01

Give the measured normalized growth for CC(C)CCCC(C)[C@H]1CCC2C3CC=C4C[C@@H](O)CC[C@]4(C)C3CC[C@@]21C (stereo partly specified) 0.984

Return value of normalized growth for input CC(C)CCCC(C)[C@H]1CCC2C3CC=C4CC(=O)CC[C@]4(C)C3CC[C@@]21C (stereo partly specified) , no commentary. 0.945

Quote normalized growth reported for Cc1ccc2c(c1)C1(C)CCCC(C)(C(=O)O)C1CC2 (stereo unspecified) please. 1.05

Write down normalized growth measured for item `NCC(=O)c1ccccc1` 0.983

Supply normalized growth value. Item: `NC(=O)NC(=O)Cc1ccccc1` 0.988

Complete the entry with normalized growth for CC(C)CCCC(C)C1CCC2C3CC[C@H]4C[C@@H](O)CC[C@]4(C)C3CC[C@]12C (stereo partly specified) 1.03

Kindly indicate its recorded normalized growth. Item: C/C1=C\CC(C)(C)/C=C/CC2(C)OC2CC1 (stereo unspecified) 0.986

Note normalized growth for the molecule shown: `CCCc1cc(=O)[nH]c(=S)[nH]1` 0.98

Given `OC[C@H]1O[C@@](CO)(O[C@@H]2O[C@H](CO)[C@@H](O)[C@H](O)[C@H]2O)[C@@H](O[C@@H]2O[C@H](CO)[C@@H](O)[C@H](O)[C@H]2O)[C@@H]1O` , respond with its normalized growth. 1.06

Specify measured normalized growth for CC(C)c1ccc2c(c1)CCC1[C@](C)(CN)CCC[C@]21C (stereo partly specified) . 0.124

Tell me normalized growth reported for CC(Cc1cccc(C(F)(F)F)c1)NCCOC(=O)c1ccccc1 (stereo unspecified) 1.01

Given the molecule NCC(N)C(=O)c1ccccc1 (stereo unspecified) , write its reported normalized growth. 0.994
